The entries below come with measured SPOT peptide array binding signal intensity values attached.
Target: AgBem1-D1
Test: SPOT peptide array binding signal intensity (averaged, normalized) (arbitrary units (background-subtracted, floor 0; scale differs between SH3 domains)); higher = stronger binding of the SH3 domain to the peptide

In the examples that follow, each entry is paired with its recorded SPOT peptide array binding signal intensity.
>>> df
            binder  result
0  RKNRAPPQRPRFNRD     438
1  GRLRPKRIAPWHLIQ      21
2  RRTRLRPPTPLSQLL     113
3  MSPLGAPPPPPHKDH     ≤ 0
4  DRIRMFIRFPKFLLE     153
5  IFLRISINFPLNYPN     952

Turning now to a further binder:
Task: Given the binder PVLPPPRSPNRPTLS , write its reported SPOT peptide array binding signal intensity.
Result: 43
